- tested_on: Ubiquitin carboxyl-terminal hydrolase 1 (Homo sapiens) (UniProt O94782)
- Sequence (O94782 whole entry, looked up): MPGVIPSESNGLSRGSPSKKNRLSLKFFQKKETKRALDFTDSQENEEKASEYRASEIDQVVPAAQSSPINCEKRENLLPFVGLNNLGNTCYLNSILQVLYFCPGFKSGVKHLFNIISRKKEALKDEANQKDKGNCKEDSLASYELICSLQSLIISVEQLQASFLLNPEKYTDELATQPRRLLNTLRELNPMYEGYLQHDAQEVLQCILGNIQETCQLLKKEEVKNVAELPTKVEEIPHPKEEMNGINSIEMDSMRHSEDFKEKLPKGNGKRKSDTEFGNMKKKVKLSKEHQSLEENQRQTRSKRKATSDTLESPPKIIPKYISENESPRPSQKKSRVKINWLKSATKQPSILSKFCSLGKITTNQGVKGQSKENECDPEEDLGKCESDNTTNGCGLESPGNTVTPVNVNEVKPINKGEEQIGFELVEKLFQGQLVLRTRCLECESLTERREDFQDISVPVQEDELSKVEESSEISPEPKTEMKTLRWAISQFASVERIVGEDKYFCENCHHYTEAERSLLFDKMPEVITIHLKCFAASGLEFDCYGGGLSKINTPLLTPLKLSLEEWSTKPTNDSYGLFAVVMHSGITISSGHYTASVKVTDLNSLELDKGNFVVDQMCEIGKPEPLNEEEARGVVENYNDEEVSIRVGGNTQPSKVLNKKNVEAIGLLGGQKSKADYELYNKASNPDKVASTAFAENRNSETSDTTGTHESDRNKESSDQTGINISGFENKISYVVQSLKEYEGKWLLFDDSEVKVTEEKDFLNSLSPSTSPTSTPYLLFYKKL
- measurement_description: Inhibitors of USP1/UAF1: Pilot qHTS (AID 504865); note: nearly all actives have a fitted effect of over 35% in size
- protocol_conditions: purified USP1/UAF1, Ub-rhodamine cleavage fluorescence; series mostly up to 114 µM
Inconclusive results are not listed. Active and inactive are the calls of the source. Calls come from the whole dose curve; as a rule, active = well fitted inhibition curve with a large enough effect; inconclusive = small, poorly fitted or top-dose-only effect; inactive = flat fitted curve, though single readings scatter.
Outcomes: 1 = active, -1 = inactive

compound: Nc1ccc(CCNc2ncnc3c2ncn3C2OC(CO)C(O)C2O)cc1 (stereo unspecified)
label_value: -1
--
compound: NC(C(=O)N[C@@H]1C(=O)N2C(C(=O)O)=C(Cl)CS[C@H]12)c1ccccc1 (stereo partly specified)
label_value: -1
--
compound: C[C@H]1CC2C3CCC4=CC(=O)C=C[C@]4(C)[C@@]3(Cl)[C@@H](O)C[C@]2(C)[C@@]1(O)C(=O)CO (stereo partly specified)
label_value: -1
--
compound: COc1ccc2c(c1)c(CC(=O)O)c(C)n2Cc1ccc(Cl)cc1
label_value: -1
--
compound: CC1C(=O)N(C)C(=O)c2nc[nH]c21 (stereo unspecified)
label_value: -1
--
compound: CC1=C(/C=C/C(C)=C/C=C/C(C)=C\C(=O)O)C(C)(C)CCC1
label_value: -1
--
compound: Nc1ccc(-c2ccc3ccccc3n2)cc1
label_value: -1
--
compound: NCCCNCCCCNCCCN
label_value: -1
--
compound: Nc1ncnc2c1nc(Br)n2C1OC2COP(=O)(O)O[C@@H]2C1O (stereo partly specified)
label_value: -1
--
compound: CCCc1c(OCCCOc2ccc(OCC(=O)O)cc2)ccc(C(C)=O)c1O
label_value: 1
--
compound: Nc1ccc(N2C(=O)c3ccccc3C2=O)c(Cl)c1
label_value: -1

---

- tested_on: Thioredoxin reductase 1, cytoplasmic (Rattus norvegicus) (UniProt O89049)
- Sequence (O89049 whole entry, looked up): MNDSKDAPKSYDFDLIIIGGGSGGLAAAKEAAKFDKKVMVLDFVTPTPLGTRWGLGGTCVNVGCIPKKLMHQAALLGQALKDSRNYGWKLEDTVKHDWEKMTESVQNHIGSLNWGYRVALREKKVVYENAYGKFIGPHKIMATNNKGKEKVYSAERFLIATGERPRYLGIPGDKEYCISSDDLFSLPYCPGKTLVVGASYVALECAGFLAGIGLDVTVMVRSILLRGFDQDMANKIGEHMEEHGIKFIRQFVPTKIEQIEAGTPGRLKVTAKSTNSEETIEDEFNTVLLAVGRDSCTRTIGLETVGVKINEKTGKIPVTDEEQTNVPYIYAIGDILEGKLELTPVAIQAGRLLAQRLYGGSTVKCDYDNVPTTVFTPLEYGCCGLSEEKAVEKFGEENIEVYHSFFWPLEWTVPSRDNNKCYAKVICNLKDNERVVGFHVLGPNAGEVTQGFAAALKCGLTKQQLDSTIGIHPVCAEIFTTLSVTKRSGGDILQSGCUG
- measurement_description: qHTS Assay for Inhibitors of Mammalian Selenoprotein Thioredoxin Reductase 1 (TrxR1) (AID 488773); note: nearly all actives have a fitted effect of over 40% in size
- protocol_conditions: purified TrxR1 enzyme activity; inhibition; series mostly up to 57.1 µM
- Description: The selenoprotein thioredoxin reductase (TrxR; EC 1.8.1.9) is a FAD containing homodimeric pyridine nucleotide-disulfide oxidoreductase with many cellular roles. Together with NADPH and its prime substrate thioredoxin (Trx), the enzyme forms the core of the Trx system. […] This BioAssay is a validation of an NADPH fluorescence-based, dual-purpose qHTS rTrxR1 assay designed to find potential inhibitors and substrates of rTrxR1. […]
Records with an inconclusive call do not appear. Active and inactive are the calls of the source. Calls follow the shape of the dose curve; as a rule, active = well fitted inhibition curve with a large enough effect; inconclusive = small, poorly fitted or top-dose-only effect; inactive = no such curve, though single readings can be large or run the other way.
Outcome codes: T (active), F (inactive)

compound: CC(=O)SC1CC2=CC(=O)CC[C@]2(C)C2CC[C@@]3(C)C(CC[C@@]34CCC(=O)O4)C12 (some centres not stated)
label_value: F

compound: OC[C@H]1NC[C@@H](O)[C@@H]1O
label_value: F

compound: Nc1ncnc2c1nc(Sc1ccc(Cl)cc1)n2[C@H]1OC2COP(=O)(O)O[C@@H]2C1O (some centres not stated)
label_value: F

compound: S=C(S)N1CCCC1
label_value: F

compound: CC1C(=O)N(C)C(=O)c2nc[nH]c21 (configuration not stated)
label_value: F

compound: CCCn1c(=O)c2[nH]c(C3CCCC3)nc2n(CCC)c1=O
label_value: F

compound: NC(N)=[N+]1CCc2ccccc2C1
label_value: F

compound: c1ccc2c(c1)CC(N1CCN(c3cccc4c3OCCO4)CC1)C2
label_value: F

compound: O[Si](CCCN1CCCCC1)(c1ccc(F)cc1)C1CCCCC1 (configuration not stated)
label_value: F

compound: C=C1C(=O)O[C@@H]2[C@H]3O[C@]3(C)CCC=C(C)CC[C@@H]12
label_value: T

compound: C#CC(N)CCC(=O)O (configuration not stated)
label_value: F

compound: C=CC[C@H](N)C(=O)O
label_value: F

---

- measurement_description: Primary qHTS for inhibitors of nuclear receptor binding SET domain protein 2 (NSD2) in an RCH-ACV wild type WT cells (2C) (AID 1645877); note: nearly all actives have a fitted effect of over 70% in size; note: potency is the fitted concentration of half-maximal effect
- protocol_conditions: RCH-ACV (leukaemia line) NSD2 WT (2C) viability, CellTiter-Glo, 72 h; series mostly up to 44.9 µM
Records with an inconclusive call do not appear. Calls of active or inactive are those of the source. Calls follow the shape of the dose curve; as a rule, active = well fitted inhibition curve with a large enough effect; inconclusive = small, poorly fitted or top-dose-only effect; inactive = no such curve, though single readings can be large or run the other way.
metric: Potency

smiles_record: O=C1Nc2ccc(I)cc2/C1=C/c1cc(Br)c(O)c(Br)c1
recorded_value: inactive
//
smiles_record: CN(C)S(=O)(=O)c1ccc2c(c1)/C(=C/c1cc3c([nH]1)CCCC3)C(=O)N2
recorded_value: 2.59 µM (active)
//
smiles_record: O=C1Cc2c([nH]c3ccc(Br)cc23)-c2ccccc2N1
recorded_value: 5.8 µM (active)
//
smiles_record: N#Cc1cc([N+](=O)[O-])c2sc(C(N)=O)[n+]([O-])c2c1
recorded_value: 10.3 µM (active)
//
smiles_record: Nc1ncnc2c1c(-c1ccc(Oc3ccccc3)cc1)cn2C1CCCC1
recorded_value: 2.59 µM (active)
//
smiles_record: CCCc1c(OCCCOc2ccc(OCC(=O)O)cc2)ccc(C(C)=O)c1O
recorded_value: inactive
//
smiles_record: CC1=C(/C=C/C(C)=C/C=C/C(C)=C\C(=O)O)C(C)(C)CCC1
recorded_value: inactive

---

- tested_on: Cytochrome P450 3A4 (Homo sapiens)
- measurement_description: qHTS Assay for Inhibitors and Substrates of Cytochrome P450 3A4 (AID 884); note: nearly all actives have a fitted effect of over 50% in size
- protocol_conditions: recombinant CYP3A4, Luciferin-PPXE luminescence; series mostly up to 57.1 µM
Records with an inconclusive call do not appear. Activity calls are given as the source filed them. Calls come from the whole dose curve; as a rule, active = well fitted inhibition curve with a large enough effect; inconclusive = small, poorly fitted or top-dose-only effect; inactive = no such curve, though single readings can be large or run the other way. Residues, ends and D or L forms follow the SMILES beside them. *: point of attachment. Cbz = O=C(OCc1ccccc1)*
Outcome codes: 1 for active, -1 for inactive

compound: c1ccc(CN2CCC3(CCCc4ccccc43)CC2)cc1
tested_on: Cytochrome P450 3A4 (Homo sapiens)
label_value: -1
//
compound: Nc1ccc(-c2nc3ccc(-c4nc5ccc(N)cc5[nH]4)cc3[nH]2)cc1
tested_on: Cytochrome P450 3A4 (Homo sapiens)
label_value: 1
//
compound: CC(=O)C(C)=O
tested_on: Cytochrome P450 3A4 (Homo sapiens)
label_value: -1
//
compound: CC(C)[C@H](NC(=O)OCc1ccccc1)C(=O)N[C@H](C=O)Cc1ccccc1 (Cbz-Val-Phe-aldehyde)
tested_on: Cytochrome P450 3A4 (Homo sapiens)
label_value: 1
//
compound: NC(N)=NC(N)=Nc1cccc(Cl)c1
tested_on: Cytochrome P450 3A4 (Homo sapiens)
label_value: -1
//
compound: c1ccc2c(c1)CC(N1CCN(c3cccc4c3OCCO4)CC1)C2
tested_on: Cytochrome P450 3A4 (Homo sapiens)
label_value: -1
//
compound: N#C/C(=C\c1ccc(O)c(O)c1)C(=O)NCCc1ccccc1
tested_on: Cytochrome P450 3A4 (Homo sapiens)
label_value: 1
//
compound: O=c1onc2cnc3ccccc3n12
tested_on: Cytochrome P450 3A4 (Homo sapiens)
label_value: 1
//
compound: CN[C@H](CC(=O)O)C(=O)O
tested_on: Cytochrome P450 3A4 (Homo sapiens)
label_value: -1
//
compound: CN1C2CCC1CC(OC(c1ccccc1)c1ccccc1)C2 (configuration not stated)
tested_on: Cytochrome P450 3A4 (Homo sapiens)
label_value: -1
//
compound: CCCCOC(=O)NS(=O)(=O)c1sc(CC(C)C)cc1-c1ccc(Cn2c(CC)nc3c(C)cc(C)nc32)cc1
tested_on: Cytochrome P450 3A4 (Homo sapiens)
label_value: 1
//
compound: O=C1NC(=O)c2cc(Nc3ccccc3)c(Nc3ccccc3)cc21
tested_on: Cytochrome P450 3A4 (Homo sapiens)
label_value: 1

---

- tested_on: ATP-dependent DNA helicase Q1 (Homo sapiens) (UniProt P46063)
- Sequence (P46063 whole entry, looked up): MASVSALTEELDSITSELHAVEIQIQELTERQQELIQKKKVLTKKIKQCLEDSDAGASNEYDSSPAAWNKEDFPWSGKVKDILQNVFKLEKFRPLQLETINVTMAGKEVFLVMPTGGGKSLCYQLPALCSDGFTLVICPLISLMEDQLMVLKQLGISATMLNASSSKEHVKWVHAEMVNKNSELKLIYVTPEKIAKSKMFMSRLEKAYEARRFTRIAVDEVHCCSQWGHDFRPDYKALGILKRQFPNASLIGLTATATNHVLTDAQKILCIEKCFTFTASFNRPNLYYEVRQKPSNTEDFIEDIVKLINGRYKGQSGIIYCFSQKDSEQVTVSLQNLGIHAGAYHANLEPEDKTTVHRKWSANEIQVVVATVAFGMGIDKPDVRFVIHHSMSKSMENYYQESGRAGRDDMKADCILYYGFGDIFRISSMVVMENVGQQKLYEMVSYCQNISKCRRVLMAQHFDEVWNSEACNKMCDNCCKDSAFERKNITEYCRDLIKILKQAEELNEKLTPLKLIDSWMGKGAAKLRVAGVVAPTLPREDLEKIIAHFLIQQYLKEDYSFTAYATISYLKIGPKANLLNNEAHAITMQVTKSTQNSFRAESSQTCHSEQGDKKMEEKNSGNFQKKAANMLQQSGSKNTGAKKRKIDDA
- measurement_description: qHTS Validation Assay for Inhibitors of RecQ-Like Dna Helicase 1 (RECQ1) (AID 2353);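 note: plate controls were DMSO vehicle for no effect and enzyme-free control for full effect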
- protocol_conditions: recombinant RECQ1 helicase DNA unwinding assay; series mostly up to 25.6 µM
Activity calls are given as the source filed them. Calls come from the whole dose curve; as a rule, active = well fitted inhibition curve with a large enough effect; inconclusive = small, poorly fitted or top-dose-only effect; inactive = flat fitted curve, though single readings scatter.

compound: CC(C)C[C@H](NC(=O)[C@H](O)[C@H](N)Cc1ccccc1)C(=O)O
outcome: inactive

compound: CC(C)NCC(O)COc1ccc(CC(N)=O)cc1 (configuration not stated)
outcome: inactive

compound: OCC1NCC(O)C(O)C1O (configuration not stated)
outcome: inactive

compound: CC(C)(CO)Cc1cc(C(C)(C)C)c(O)c(C(C)(C)C)c1
outcome: inactive

compound: Cc1cccc(C)c1OCC(N)C(C)C (configuration not stated)
outcome: inactive

compound: COc1ccc(C(=O)NCc2cccnc2)cc1C(=O)NCc1cccnc1
outcome: inactive

compound: O=C(O)c1cccnc1C(=O)O
outcome: inactive

compound: NC(=Nc1ccccc1)NC(=O)c1nc(Cl)c(N)nc1N
outcome: inactive

compound: CCCCC[C@H](CC(=O)NO)C(=O)N[C@H](C(=O)N1CCC[C@H]1CO)C(C)C
outcome: inactive

compound: Cn1c(=O)c2[nH]c(C3CCCC3)nc2n(C)c1=O
outcome: inactive

compound: COc1ccccc1N1CCN(CCCNc2c(C)c(=O)n(C)c(=O)n2C)CC1
outcome: inactive

compound: O=C(O)c1cc(=O)cc(C(=O)O)[nH]1
outcome: inactive

The measurements presented in this section are drawn from PubChem BioAssay (NCATS).
